measured_target: UniProt:P35414
Sequence (P35414 1-380): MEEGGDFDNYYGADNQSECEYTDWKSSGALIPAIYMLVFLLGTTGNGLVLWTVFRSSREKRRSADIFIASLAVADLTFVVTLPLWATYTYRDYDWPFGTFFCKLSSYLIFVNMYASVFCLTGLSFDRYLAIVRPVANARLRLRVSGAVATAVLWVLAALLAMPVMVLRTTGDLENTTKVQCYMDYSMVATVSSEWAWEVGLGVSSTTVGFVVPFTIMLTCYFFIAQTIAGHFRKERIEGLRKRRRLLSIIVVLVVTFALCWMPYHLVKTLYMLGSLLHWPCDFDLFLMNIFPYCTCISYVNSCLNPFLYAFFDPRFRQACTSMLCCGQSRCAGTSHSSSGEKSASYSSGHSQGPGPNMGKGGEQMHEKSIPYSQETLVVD
run_description: In vitro apelin agonist activity (methods of Giddings et al., Apelin-13 as positive control)
Assay type: cell-based
condition_summary: in vitro apelin agonist activity, methods of Giddings et al., Apelin-13 as positive control; read-out: EC50 (nM) Ave
quantity_kind: EC50 (nM)

Record excerpt, results attached:
I have this compound here, O=C(O)C[C@H](CCN1CCCC(F)(F)C1)NC(=O)c1cc(-c2ccccc2C(F)(F)F)n(C2CCOCC2)n1 , and I need its recorded EC50.
1480

I have this compound here, O=C(O)C[C@H](CCN1CCC[C@@H](F)C1)NC(=O)c1cc(-c2ccccc2C(F)(F)F)n(C2CCCC2)n1 , and I need its recorded EC50.
184

(a) O=C(C[C@H](CCN1CCCC(F)(F)C1)NC(=O)c1cc(-c2cccnc2Cl)n(C2CCCC2)n1)NC1CCC1
(b) O=C(C[C@H](CCN1CCCC(F)(F)C1)NC(=O)c1cc(-c2cnccc2Cl)n(C2CCCC2)n1)NC1CCC1
Field: entry with larger EC50 (options a / b ). Respond using the label that marks the chosen record.
b
(b: 1220 nM, a: 133 nM)

###

measured_target: UniProt:P35414
run_description: In vitro apelin agonist activity (methods of Giddings et al., Apelin-13 as positive control)
Format: cell-based
condition_summary: in vitro apelin agonist activity, methods of Giddings et al., Apelin-13 as positive control; read-out: EC50 (nM) Ave
From the text: Characterization of the Apelin Agonist Activity of the Compounds 1:39-47, the contents of which are hereby incorporated by reference in its entirety. Using the methods described in Giddings et al. and Apelin-13 as a positive control.
Where a name gives a salt, the structure may show the parent alone.
quantity_kind: EC50 (nM)

Record excerpt, results attached:
I have this compound here, CN(CC[C@@H](CC(=O)NC1CCC1)NC(=O)c1cc(-c2ccccc2C(F)(F)F)n(C2CCCC2)n1)C1(C)CCCC1 , and I need its recorded EC50.
35

I have this compound here, CN(C(=O)C[C@H](CCN1CCCC(F)(F)C1)NC(=O)c1cc(-c2ccccc2Cl)n(C2CCCC2)n1)c1ncco1 , and I need its recorded EC50.
70

(1) CC1(C)CC(F)(F)CN1CC[C@@H](CC(=O)O)NC(=O)c1cc(-c2ccccc2C(F)(F)F)n(C2CCCC2)n1
(2) C[C@@H](C[C@@H](CC(=O)O)NC(=O)c1cc(-c2ccccc2C(C)(F)F)n(C2CCCC2)n1)N1CCC(F)(F)C1
(3) CCc1ccccc1-c1cc(C(=O)N[C@@H](CCN2CCCCC2)CC(=O)O)nn1C1CCCC1 [compound 403, hydrochloride]
(4) O=C(C[C@H](COc1ccc(F)cc1)NC(=O)c1cc(-c2ccccc2C(F)(F)F)n(C2CCCC2)n1)NC1CCC1
Please list these compounds in decreasing order of EC50. Your task in answering is to list the labels in the requested order.
1, 4, 2, 3

###

measured_target: apelin receptor (APJ) (Homo sapiens, UniProt P35414)
run_description: In vitro apelin agonist activity (methods of Giddings et al., Apelin-13 as positive control)
Format: cell-based
condition_summary: in vitro apelin agonist activity, methods of Giddings et al., Apelin-13 as positive control; read-out: EC50 (nM) Ave
quantity_kind: EC50 (nM)

Record excerpt, results attached:
I have this molecule here, O=C(C[C@H](CCN1CC(F)(F)C1)NC(=O)c1cc(-c2ccccc2C(F)(F)F)n(C2CCCC2)n1)NC1CCC1 , and I need its recorded EC50.
32

I have this molecule here, O=C(O)C[C@H](CCN1C[C@@H](F)[C@@H](F)C1)NC(=O)c1cc(-c2ccccc2C(F)(F)F)n(C2CCCC2)n1 , and I need its recorded EC50.
215

I have this molecule here, O=C(O)C[C@H](COc1ccc(F)cc1)NC(=O)c1cc(-c2ccccc2C(F)(F)F)n(C2CCCC2)n1 , and I need its recorded EC50.
1230

I have this molecule here, C[C@@H](C[C@@H](CC(=O)O)NC(=O)c1cc(-c2ccccc2C(F)(F)F)n(C2CCCC2)n1)N1CCCC(F)(F)C1 , and I need its recorded EC50.
1370

I have this molecule here, O=C(C[C@H](CCN1CCCC1)NC(=O)c1cc(-c2ccccc2C(F)(F)F)n(C2CCCC2)n1)NC1CCC1 , and I need its recorded EC50.
59

I have this molecule here, COc1cccc(OC)c1-c1cc(C(=O)N[C@@H](CCN2CCCCC2)CC(=O)N(C)c2nccs2)nn1C1CCCC1 , and I need its recorded EC50.
73

(a) O=C(O)C[C@H](CCN1CC[C@@H](F)[C@@H](F)C1)NC(=O)c1cc(-c2ccccc2C(F)(F)F)n(C2CCCC2)n1
(b) CCCn1nc(C(=O)N[C@@H](CCN2CCCC(F)(F)C2)CC(=O)O)cc1-c1ccccc1C(F)(F)F
Would you mind telling me which has the lower recorded EC50 between a and b ? Respond using the label that marks the chosen record.
a

(1) CC(C)CN(C)CC[C@@H](CC(=O)NC1CCC1)NC(=O)c1cc(-c2ccccc2C(F)(F)F)n(C2CCCC2)n1
(2) Cc1cnc(NC(=O)C[C@H](CCN2CCC(F)(F)CC2)NC(=O)c2cc(-c3ccccc3C(F)(F)F)n(C3CCCC3)n2)s1
Would you mind telling me which has the lower recorded EC50 between 1 and 2 ? Respond using the label that marks the chosen record.
1
(1: 24 nM, 2: 58 nM)

(P) COc1cccc(OC)c1-c1cc(C(=O)N[C@H](CC#N)CCc2ccccc2)nn1C1CCCC1
(Q) COc1cccc(OC)c1-c1cc(C(=O)N[C@@H](/C=C/c2ccccn2)CC(=O)NC2CCC2)nn1C1CCCC1
Would you mind telling me which has the lower recorded EC50 between P and Q ? Respond using the label that marks the chosen record.
P
(P: 6340 nM, Q: 9210 nM)

(P) CN(C(=O)C[C@H](CCN1CCCC(F)(F)C1)NC(=O)c1cc(-c2ccccc2C(F)(F)F)n(C2CCCC2)n1)c1ncco1
(Q) COc1cccc(OC)c1-c1cc(C(=O)N[C@@H](CCN2CCCC(F)(F)C2)CC(=O)Nc2nccs2)nn1C1CCCC1
(R) COc1cccc(OC)c1-c1cc(C(=O)N[C@@H](CCN2CCCCCC2)CC(=O)NC2CCC2)nn1C1CCCC1
(S) CCc1cc(F)ccc1-c1cc(C(=O)N[C@@H](CCN2CCCCC2)CC(=O)NC2CCC2)nn1C1CCCC1
(T) O=C(O)C[C@H](CCN1CCCC[C@@H]1C(F)(F)F)NC(=O)c1cc(-c2ccccc2C(F)(F)F)n(C2CCCC2)n1
Hi! Can you put these in order of EC50, lowest number first? Your task in answering is to list the labels in the requested order.
Q, P, R, S, T
(Q: 15 nM, P: 27 nM, R: 107 nM, S: 264 nM, T: 1340 nM)

###

measured_target: apelin receptor (APJ) (Homo sapiens, UniProt P35414)
run_description: In vitro apelin agonist activity (methods of Giddings et al., Apelin-13 as positive control)
Assay type: cell-based
condition_summary: EC50 (nM) Ave, in vitro apelin agonist activity, methods of Giddings et al., Apelin-13 as positive control
Listing of entries alongside the reported EC50.
Output spec: scalar in nM, unitless text.

Param readout= EC50; system= apelin receptor (APJ) (Homo sapiens, UniProt P35414); entry= O=C(C[C@H](CN1CCCC(F)(F)C1)NC(=O)c1cc(-c2ccccc2C(F)(F)F)n(C2CCCC2)n1)NC1CCC1 ; returns value.
910

***
Param readout= EC50; system= apelin receptor (APJ) (Homo sapiens, UniProt P35414); entry= CN(C[C@@H](CC(=O)NC1CCC1)NC(=O)c1cc(-c2ccccc2C(F)(F)F)n(C2CCCC2)n1)C1CCCCC1 ; returns value.
5120

###

measured_target: apelin receptor (APJ) (Homo sapiens, UniProt P35414)
run_description: In vitro apelin agonist activity (methods of Giddings et al., Apelin-13 as positive control)
Assay type: cell-based
condition_summary: in vitro apelin agonist activity, methods of Giddings et al., Apelin-13 as positive control; read-out: EC50 (nM) Ave
quantity_kind: EC50 (nM)

I have this compound here, CCCN(CCC)CC[C@@H](CC(=O)NC1CCC1)NC(=O)c1cc(-c2ccccc2C(F)(F)F)n(C2CCCC2)n1 [compound 492] , and I need its recorded EC50.
36

I have this compound here, CS(=O)(=O)c1ccccc1-c1cc(C(=O)N[C@@H](CCN2CCCCC2)CC(=O)NC2CCC2)nn1C1CCCC1 [compound 367] , and I need its recorded EC50.
2970

I have this compound here, CN(C(=O)[C@@H](CC(=O)O)NC(=O)c1cc(-c2ccccc2C(F)(F)F)n(C2CCCC2)n1)C1CCCCC1 [compound 558] , and I need its recorded EC50.
1170

I have this compound here, N#CC1CCN(CC[C@@H](CC(=O)NC2CCC2)NC(=O)c2cc(-c3ccccc3C(F)(F)F)n(C3CCCC3)n2)C1 (stereo partly drawn) [compound 481] , and I need its recorded EC50.
1.96

I have this compound here, CC(C[C@@H](CC(=O)O)NC(=O)c1cc(-c2ccccc2C(C)(F)F)n(C2CCCC2)n1)N1C[C@H](F)[C@@H](F)C1 (stereo partly drawn) [compound 595] , and I need its recorded EC50.
140

I have this compound here, O=C(C[C@H](CCN1CCCC(F)(F)C1)NC(=O)c1cc(-c2ccccc2C(F)(F)F)n(C2CCCC2)n1)Nc1ncco1 [compound 427] , and I need its recorded EC50.
8.5

I have this compound here, COc1cccc(OC)c1-c1cc(C(=O)N[C@@H](CCc2ccccc2)CC(=O)Nc2nnn[nH]2)nn1C1CCCC1 [compound 381] , and I need its recorded EC50.
647

I have this compound here, O=C(O)C[C@H](CCN1CCCCC1)NC(=O)c1cc(-c2ccccc2C(F)(F)F)n(C2CCCC2)n1 [compound 494] , and I need its recorded EC50.
215

(A) C#Cc1ccccc1-c1cc(C(=O)N[C@@H](CCN2CCCCC2)CC(=O)NC2CCC2)nn1C1CCCC1 [compound 438]
(B) COc1cccc(OC)c1-c1cc(C(=O)N[C@@H](CCc2ccccc2)C(=O)NCc2nnn[nH]2)nn1C1CCCC1 [compound 387]
Field: entry with larger EC50 (options A / B ). Respond using the label that marks the chosen record.
B

(I) O=C(O)C[C@H](CCN1CCCC(F)(F)C1)NC(=O)c1cc(-c2ccccc2C(F)(F)F)n(CC2CC2)n1 [compound 557]
(II) O=C(O)C[C@H](CCN1CCC(F)(F)CC1)NC(=O)c1cc(-c2ccccc2C(F)(F)F)n(C2CCCC2)n1 [compound 424]
Would you mind telling me which has the lower recorded EC50 between I and II ? Respond using the label that marks the chosen record.
II
(II: 110 nM, I: 401 nM)
